testTarget: 6D8 single-chain Fv (scFv)
Sequence (VH, as listed by the source, chain 1 of 2): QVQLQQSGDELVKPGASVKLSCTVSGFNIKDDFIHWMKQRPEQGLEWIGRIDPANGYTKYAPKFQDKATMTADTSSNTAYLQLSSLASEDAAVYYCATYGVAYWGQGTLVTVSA
Sequence (VL, as listed by the source, chain 2 of 2): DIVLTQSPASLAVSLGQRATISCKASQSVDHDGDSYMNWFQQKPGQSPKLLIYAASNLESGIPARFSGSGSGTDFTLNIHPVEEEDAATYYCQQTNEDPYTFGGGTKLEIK
experimentalProtocol: ITC
Reported Kd values are given for each entry in this list.
Answer in nM, number only, no unit symbol.

Lookup: What does the data say about its Kd? Entry: NAYNMSIRR [MSP2 14-22 peptide (minimal 6D8 epitope of merozoite surface protein 2)]
Found: 6

Lookup: What does the data say about its Kd? Entry: NAYNMSIRRSMANEGSNTNSV [FC27 MSP2 14-34 peptide (C-terminally extended epitope, FC27 allele)]
Found: 16

Lookup: What does the data say about its Kd? Entry: NAYNMSIRRSMAESKPSTGAG [3D7 MSP2 14-34 peptide (C-terminally extended epitope, 3D7 allele)]
Found: 64

The reported numbers originate from paper PMC6123721.
